The entries below are paired with their reported TGI.
Tested on: NCI-H522 lung
Assay: NCI tumour cell line growth inhibition, 48 h
Write the answer as a number in µM, unit excluded.

Here is how some compounds turned out for TGI.
O=C(c1ccccc1)c1c(NCC(O)CN2CCCC2)n(Cc2ccccc2)c(=O)n(Cc2ccccc2)c1=O (stereo not given) | 35.6
COc1cc(-c2nn3c(/C=C4/C(=O)Nc5ccccc54)c(-c4ccc(C)cc4)nc3s2)cc(OC)c1OC | 37.5

Let's switch to this compound now.
[Q] Please give the measured TGI for this compound: CN1C(=O)c2c(ccc3c2OCO3)C2C(O)Cc3cc4c(cc3C21)OCO4 (stereo not given)
[A] 9.28

---

Test system: M14 melanoma
Assay: NCI tumour cell line growth inhibition, 48 h
Known TGI of a selection of compounds
# value in µM; strip the unit string

As a guide, the following entries are already answered.
COc1ccc2c(c1)C(=O)c1c-2n(CCCN)c(=O)c2ccccc12 | 1.53
CC1=C([Se]CC(OC(=O)[C@@H](CSSC(C)(C)C)NC(=O)OC(C)(C)C)C(=O)NC(C)(C)C)C(=O)c2ccccc2C1=O (some centres undefined) | 2.58
C#CCC[C@@H]1O[C@@]1(C)CC/C=C(\C)CC/C=C/C=O | 48.3
CN(C)CCNc1ccc(C(=O)NCCCN(C)CCCNC(=O)c2ccc(NCCN(C)C)c3c(=O)c4ccccc4[nH]c23)c2[nH]c3ccccc3c(=O)c12 | 1.53
S=c1sc2c(Cl)ncnc2n1-c1ccccc1 | 26.3

[Q] May I ask what TGI has been recorded for `CCC[CH2][Sn]([CH2]CCC)([O]C(=O)c1c(F)cccc1F)[O]C(=O)c1c(F)cccc1F` ?
[A] 2.26

[Q] Reported TGI, compound `O=C(O)[C@H]1[C@@H](C2CCCCC2)O[C@@H](C2CCCCC2)O[C@H]1C(F)(F)F` : ____
[A] 39.4

[Q] Which TGI value belongs to `CC1=NN(C(=O)c2ccccc2O)C(=O)/C1=C/c1ccc([N+](=O)[O-])cc1` ?
[A] 40.7

---

Entries and their measured log10 TGI follow.
Test system: BT-549 breast
Assay: NCI tumour cell line growth inhibition, 48 h
Values below are the log10 of the recorded TGI, with µM as the unit.

Consider the following illustrative entries.
Cn1cc(-c2nonc2-c2c[nH]c3ccccc23)c2ccccc21 | 0.89
CN(C)c1nc2sc3c(c2c(=O)o1)CCCC3 | 1.82
Cc1c2cnccc2c(C)c2c1c1cc(C3OCCCO3)ccc1n2C | 0.32

[Q] Report log10 TGI for `C=C(C)[C@@]1(O)O[C@H]2C[C@@]3(C)OC(=CC3=O)/C(C)=C\[C@@H]3OC(=O)[C@@]1(C)[C@H]32` tested on BT-549 breast.
[A] 1.38

[Q] Quick check: log10 TGI on BT-549 breast, item `CC(=O)C1=C(O)C=C2Oc3c(C(=O)/C=C/c4cc(C(F)(F)F)cc(C(F)(F)F)c4)c(O)c(C)c(O)c3[C@]2(C)C1=O` ?
[A] 0.26

[Q] Query the reported log10 TGI for BT-549 breast; item: `O=C1c2c(F)c(F)c(F)c(F)c2SC2=NCCN12`
[A] 1.45

[Q] Recorded log10 TGI for `COc1ccc(C#Cc2ccccc2C#CCCCCO)cc1` with BT-549 breast, please?
[A] 1.66

---

TGI by entry:
Test system: SW-620 colon
Assay: NCI tumour cell line growth inhibition, 48 h

Study these solved cases before continuing.
O=C1NC(N/N=C\C(O)C(O)C(O)CO)=N/C1=C/c1ccccc1 (stereo not drawn) | > 100 µM
O=S(=O)(Oc1ccc2oc3ccccc3c2c1-c1c(OS(=O)(=O)C(F)(F)F)ccc2oc3ccccc3c12)C(F)(F)F | > 100 µM
Nc1nc(CCC(=O)Nc2cccc(C(F)(F)F)c2)cc(-c2cccc3ccccc23)n1 | > 100 µM

[Q] I'd like to know its TGI. The molecule in question is CNC(=O)c1ccccc1-[s+]1c2ccccc2c(=O)n1C (stereo not drawn)
[A] > 100 µM

[Q] For the molecule O=C1c2ccccc2C2(O)Nc3cc(O)ccc3C12O (stereo not drawn) , what TGI is on record?
[A] > 100 µM

[Q] Tell me the measured TGI of `NNC(=S)N/N=C(\CCCC(=O)NCCc1ccccc1)CC(=O)c1ccccc1` , please.
[A] > 100 µM

[Q] Look up TGI for this molecule: `COc1ccc(C#Cc2ccccc2C#CCCCCO)cc1`
[A] 34.8 µM

---

Reported TGI values are given for each entry in this list.
System: LOX IMVI melanoma
Experiment: NCI tumour cell line growth inhibition, 48 h
Your answer should be a plain number; it is taken to be in µM.

CC/C(Cc1ccccc1)=C(\c1ccc(OCCN2CCCCCC2)cc1)c1ccc(OC(=O)NCc2ccccc2)cc1 | 1.75

[Q] Can you look up the measured TGI of `CCOC(=O)c1cccc(NC(=O)CCl)c1` for me?
[A] 3.89

---

Tested on: SK-OV-3 ovarian
Test: NCI tumour cell line growth inhibition, 48 h; in the data active means GI50 below about 0.43 µM; inactive means the rest
Assign a class; possible classes are active, inactive

COc1cc2c(/C=N\N=C(N)N)c(Cl)[nH]c2cc1C | inactive
C=CC(=O)Nc1ccc(Nc2nccc(-c3ccc(N4CCCC4)c(C#N)c3)n2)cc1 | inactive
C(=Nc1ccccc1)C1CCCC[N-]1.C(=Nc1ccccc1)C1CCCC[N-]1.[Cu+2].[O-][Cl+3]([O-])([O-])O (stereo not given) | inactive

[Q] Please indicate how the test categorized COc1cccc(C2CC(c3cc(OC)c(OC)c(OC)c3)=NN2)c1 (stereo not given) .
[A] inactive

[Q] Identify the outcome logged in this assay for the molecule shown: `Cc1c2cnccc2c(C)c2c1c1cc(C3OCCCO3)ccc1n2C`
[A] active

---

Test system: HT29 colon
Experiment: NCI tumour cell line growth inhibition, 48 h
Class met: TGI at least 30 µM. Class not met: TGI below 30 µM.

Would you please look over these solved cases?
C#CCC[C@@H]1O[C@@]1(C)CC/C=C(\C)CC/C=C/C=O | met
NNC(=S)N/N=C(\CCCC(=O)NCCc1ccccc1)CC(=O)c1ccccc1 | met
Cc1[nH]ncc1-c1cc2nc(C3CC4CCN3CC4)[nH]c(=O)c2s1 (stereo unspecified) | met
CN1C(=O)c2c(ccc3c2OCO3)C2C(O)Cc3cc4c(cc3C21)OCO4 (stereo unspecified) | not met
COc1ccc(-c2nc(N)c(C#N)c3c2CCS(=O)(=O)c2ccc(C)cc2-3)cc1OC | met
N#C/C(=C\c1ccccc1O)C(N)=O | met

[Q] Record `O=C(CC1=Nc2nnc(-c3nnc4n3C(=O)C(CC(=O)c3cccnc3)=N4)n2C1=O)c1cccnc1` ; criterion: TGI no lower than 30 µM. Met?
[A] met

[Q] Entry `O=C(Nc1cccc2ccccc12)Oc1ccccc1C1CCCCC1` : is its TGI no less than 30 µM?
[A] met

[Q] Would you say `CCCC(=O)O` shows TGI at minimum 30 µM?
[A] met

[Q] Quick check: does `CC(C)(C)OC(=O)NCCNC1=CC(=O)c2nc3ccccc3c3ccnc1c23` have TGI greater than or equal to 30 µM?
[A] met

[Q] // inclusive: TGI at least 30 µM? input: `S=c1sc2c(Cl)ncnc2n1-c1ccccc1`
[A] not met

---

Tested on: HT29 colon
Assay: NCI tumour cell line growth inhibition, 48 h
quantity kind: TGI

COC(=O)[C@H](Cc1ccccc1)NC(=O)c1ccc(CNC(=O)/C=C/c2ccc(-c3ccccc3)cc2)cc1 | > 100 µM
O=C(COc1ccc(OCC(=O)N2C(=O)CC(=O)N(c3ccccc3)C2=S)cc1)N1C(=O)CC(=O)N(c2ccccc2)C1=S | > 100 µM
CCOc1ccc(NC(=O)CC2SC(=Nc3ccc(Cl)cc3)NC2=O)cc1 (stereo not drawn) | > 100 µM
O=C(CSCC(=O)N/N=C/c1cc(I)cc(I)c1O)N/N=C/c1cc(I)cc(I)c1O | > 100 µM
O=C(O)[C@H]1[C@@H](C2CCCCC2)O[C@@H](C2CCCCC2)O[C@H]1C(F)(F)F | 44 µM
Nc1ccn(C2OC(CO)C(O)C2F)c(=O)n1 (stereo not drawn) | > 5000 µM

[Q] What does the data say about its TGI? Entry: `CC1=C(C(=O)NCc2ccccc2)C(c2ccc(C3C(C(=O)NCc4ccccc4)=C(C)NC(C)=C3C(=O)NCc3ccccc3)cc2)C(C(=O)NCc2ccccc2)=C(C)N1`
[A] 20.3 µM

[Q] Reported TGI for `COC1=CC(c2ccc[nH]2)=N/C1=C\c1[nH]c(C)c(C(=O)OCc2ccccc2)c1C` : what is it?
[A] 1.27 µM

---

Test system: DU-145 prostate
Test: NCI tumour cell line growth inhibition, 48 h
List of TGI values.

Here's what some known entries look like.
CC(=O)N1CCN(C2=Nc3ccccc3CO2)C1=S | > 100 µM
Clc1ccc(-c2ccc(-c3nnc(CCc4nnc(-c5ccc(-c6ccc(Cl)cc6)o5)o4)o3)o2)cc1 | > 100 µM
COc1ccc(-c2[nH]ncc2-c2cc3c(c(OC)c2)OCC(=O)N3)cc1 | > 100 µM
O=c1c2ccccc2oc2nc3n(c(=O)c12)CCCS3 | > 100 µM

[Q] What TGI value was documented for this compound, COC(=O)N1CC2(CO)C3CC=C(C(=O)Nc4ccccc4Br)C2C1C3Br (stereo not given) ?
[A] > 50 µM
